target: Luciferin 4-monooxygenase (Photinus pyralis); assay: qHTS profiling assay for firefly luciferase inhibitor/activator using purifed enzyme and Km concentrations of substrates (counterscreen for miR-21 project); settings: purified FLuc, luminescence inhibition; series mostly up to 57.5 µM; also: nearly all actives have a fitted effect of over 55% in size
About 25,000 (6.9%) of roughly 360,000 compounds were called active. Roughly 9% stayed inconclusive and do not appear here. Calls follow the shape of the dose curve; as a rule, active = well fitted inhibition curve with a large enough effect; inconclusive = small, poorly fitted or top-dose-only effect; inactive = flat fitted curve, though single readings scatter. The sample holds actives, similar compounds and a random draw of the others, so the mix is not that of the screen.
Select the matching outcome among active, inactive

Req: How was CC1=C(C(=O)OCC(C)C)C(c2ccc(OCc3ccccc3)cc2)N2C(=O)CCSC2=N1 (centres undefined) classified in this test?
Resp: inactive

Req: How was CCOC(=O)c1ccc(CS(=O)c2ccc(Cl)cc2)o1 (centres undefined) classified in this test?
Resp: inactive

Req: How was CCc1ccc(NC(=O)N2CCN(c3ccccc3)CC2)cc1 classified in this test?
Resp: inactive

Req: How was CN(Cc1ccccc1)c1ccc(-c2nc(-c3ccccc3)no2)cc1[N+](=O)[O-] classified in this test?
Resp: inactive

Req: How was CCn1c2ccccc2c2cc(NC(=O)COc3ccc(C)cc3C)ccc21 classified in this test?
Resp: inactive

Req: How was Cc1cc(C)cc(OCC(=O)Nc2ccc(N3CCOCC3)cc2N2CCOCC2)c1 classified in this test?
Resp: inactive

Req: How was O=C(O)COCC(=O)NCc1csc2ccc(Cl)cc12 classified in this test?
Resp: inactive

Req: How was Cc1cccc(N(C(=O)Cc2cccs2)C(C(=O)NCc2ccco2)c2ccncc2)c1 (centres undefined) classified in this test?
Resp: inactive

Req: How was Cc1cccc(NC(=O)c2ccccc2NC(=O)C(C)(C)C)n1 classified in this test?
Resp: inactive

Req: How was O=C(Nc1nc2ccc([N+](=O)[O-])cc2s1)c1ccncc1 classified in this test?
Resp: active

Req: How was CCc1ccc(CNC(=O)c2cc3c(=O)n(CC)c4ccccc4c3s2)cc1 classified in this test?
Resp: inactive

Req: How was O=C(Nc1cccc([N+](=O)[O-])c1)Nn1cnnc1 classified in this test?
Resp: inactive

Req: How was CCc1ccc(NC(=O)CN2C(=O)C(c3ccccc3)=NC23CCCCCC3)cc1 classified in this test?
Resp: inactive

Req: How was COc1cc(C(C)=O)ccc1OC(C)C(=O)Nc1ccc(S(=O)(=O)N2CCCC2)cc1 (centres undefined) classified in this test?
Resp: inactive

Req: How was COc1ccc(/C=C(\C#N)c2c[nH]c3ccccc23)cc1 classified in this test?
Resp: active

Req: How was Cc1ccc(N(C(=O)Cc2cccs2)C(C(=O)NCC2CCCO2)c2ccncc2)cc1 (centres undefined) classified in this test?
Resp: active

Req: How was CN(C)CCn1c2c(c(SCC(=O)NCc3ccccc3)nc1=O)CCC2 classified in this test?
Resp: inactive

Req: How was CCN(CC)CCNC(=O)c1ccc(NC(=O)c2cc(-c3ccncc3)nc3ccccc23)cc1 classified in this test?
Resp: inactive

Req: How was O=C1Nc2cc(C(=O)N3CCC(N4CCCCC4)CC3)ccc2S/C1=C\c1ccccc1 classified in this test?
Resp: inactive

Req: How was CC(C)(C)c1cc(C(=O)N/N=C/c2ccc([N+](=O)[O-])s2)n[nH]1 classified in this test?
Resp: inactive

Req: How was O=C(NC(Nc1nc2ccc([N+](=O)[O-])cc2s1)(C(F)(F)F)C(F)(F)F)c1ccccc1 classified in this test?
Resp: inactive

Req: How was COCCNC(=O)COc1ccccc1C classified in this test?
Resp: inactive

Req: How was O=C(Cn1cc(/C=N/NC(=O)c2cccc(C(F)(F)F)c2)c2ccccc21)Nc1ccc(F)cc1 classified in this test?
Resp: inactive

Req: How was CCc1ccc(NC(=O)N2CCc3ccccc3C2)cc1 classified in this test?
Resp: active

Req: How was Cc1ccc(S(=O)(=O)NC(=O)COc2ccccc2C)cc1 classified in this test?
Resp: inactive

Req: How was COc1ccc(C(=O)Nc2nc(-c3ccc(OC)cc3)c(-c3ccc([N+](=O)[O-])cc3)s2)cc1 classified in this test?
Resp: inactive

Req: How was COC(=O)c1cc(NC(=O)c2sc3ccccc3c2Cl)cc(C(=O)OC)c1 classified in this test?
Resp: inactive

Req: How was O=C(Nc1cccc([N+](=O)[O-])c1)N1CCc2ccccc2C1 classified in this test?
Resp: active

Req: How was O=[N+]([O-])c1ccc(C=Nc2ccc(Cl)cc2Cl)s1 classified in this test?
Resp: active

----------
target: Luciferin 4-monooxygenase (Photinus pyralis) (UniProt P08659); experiment: qHTS profiling assay for firefly luciferase inhibitor/activator using purifed enzyme and Km concentrations of substrates (counterscreen for miR-21 project); conditions: purified FLuc, luminescence inhibition; series mostly up to 57.5 µM; also: nearly all actives have a fitted effect of over 55% in size
Sequence (P08659 whole entry, looked up): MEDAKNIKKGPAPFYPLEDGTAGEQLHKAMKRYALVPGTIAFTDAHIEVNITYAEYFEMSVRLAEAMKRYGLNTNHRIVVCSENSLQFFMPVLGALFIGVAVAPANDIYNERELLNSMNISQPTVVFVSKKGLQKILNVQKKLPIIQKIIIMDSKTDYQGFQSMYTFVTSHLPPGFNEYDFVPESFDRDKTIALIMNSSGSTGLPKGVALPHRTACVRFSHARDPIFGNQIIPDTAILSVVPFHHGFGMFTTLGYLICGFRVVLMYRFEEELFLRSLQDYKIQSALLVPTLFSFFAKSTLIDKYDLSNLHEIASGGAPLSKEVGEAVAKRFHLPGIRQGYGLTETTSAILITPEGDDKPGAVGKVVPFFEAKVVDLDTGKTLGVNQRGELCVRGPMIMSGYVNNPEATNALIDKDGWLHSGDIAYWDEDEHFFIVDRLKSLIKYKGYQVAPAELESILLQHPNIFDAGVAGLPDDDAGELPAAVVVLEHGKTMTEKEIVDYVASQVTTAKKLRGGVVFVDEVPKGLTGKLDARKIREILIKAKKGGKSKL
Hit rate of the full screen: of about 360,000 compounds, about 25,000 (6.9%) were called active. Another 9% or so got no clear call; they are omitted. The call rests on the fitted dose curve; in most records, active means well fitted inhibition curve with a large enough effect; inconclusive means small, poorly fitted or top-dose-only effect; inactive means flat fitted curve, though single readings scatter. The sample holds actives, similar compounds and a random draw of the others, so the mix is not that of the screen.
Select the matching outcome among active, inactive

Req: How was COC(=O)C1CCN(C(=O)c2ccc3oc(Cc4ccc(Cl)cc4)nc3c2)CC1 classified in this test?
Resp: inactive

Req: How was CCN(CC(=O)Nc1cc(Cl)ccc1C)C(=O)CSCc1ccccc1 classified in this test?
Resp: inactive

Req: How was CCOC(=O)N1CCc2c(sc3c2C(=O)NC(c2ccccc2F)N3)C1 (stereo unspecified) classified in this test?
Resp: inactive

Req: How was Cc1cccc(C)c1OCCN1CCOCC1 classified in this test?
Resp: inactive

Req: How was CCC(=O)Nc1ccc(-c2ccc(N3CCCCC3)nn2)cc1 classified in this test?
Resp: active

Req: How was CCn1c2ccc(F)cc2c2nnc(SCCN3CCOCC3)nc21 classified in this test?
Resp: inactive

Req: How was CC(=O)c1ccc(-c2nnc(CCC(=O)N(C)Cc3cnc4ccccn34)o2)s1 classified in this test?
Resp: inactive

Req: How was CC1CCCC(C)N1C(=O)COC(=O)COc1ccccc1C#N (stereo unspecified) classified in this test?
Resp: inactive

Req: How was CCc1ccc(CN(C)Cc2nc(Cc3ccccc3)no2)nc1 classified in this test?
Resp: inactive

Req: How was FC(F)(F)C1CCCN(c2nsc3ccccc23)C1 (stereo unspecified) classified in this test?
Resp: active

Req: How was O=C1C=C(c2cccc(Cl)c2)C[C@@H](c2ccc(F)cc2)C1 classified in this test?
Resp: inactive

----------
biological target: Luciferin 4-monooxygenase (Photinus pyralis) (UniProt P08659); test: qHTS profiling assay for firefly luciferase inhibitor/activator using purifed enzyme and Km concentrations of substrates (counterscreen for miR-21 project); settings: purified FLuc, luminescence inhibition; series mostly up to 57.5 µM; also: nearly all actives have a fitted effect of over 55% in size
Hit rate of the full screen: of about 360,000 compounds, about 25,000 (6.9%) were called active. Not shown: some 9% with an inconclusive outcome. Calls come from the whole dose curve; as a rule, active = well fitted inhibition curve with a large enough effect; inconclusive = small, poorly fitted or top-dose-only effect; inactive = flat fitted curve, though single readings scatter. Many of the other results were omitted from the sample, so actives are more common in it than they were.
Select the matching outcome among YES (active), NO (inactive)

Req: How was CCCn1c(C2CCCN2c2nc(-c3ccc(OC)cc3)cs2)nc2ccccc21 (stereo unspecified) classified in this test?
Resp: NO

Req: How was CC1CCc2sc(C(=O)NCC(c3ccco3)N3CCCCC3)cc2C1 (stereo unspecified) classified in this test?
Resp: NO

Req: How was CCCCCCSc1nsc(N)n1 classified in this test?
Resp: YES

Req: How was COc1ccc(Cn2c(=O)c3oc4ccccc4c3n(CC(=O)Nc3ccc(F)cc3F)c2=O)cc1 classified in this test?
Resp: NO

Req: How was COc1ccc(-c2csc(Cc3nc(O)cs3)n2)cc1 classified in this test?
Resp: YES

Req: How was O=C(Nc1cccnc1)c1cccc(S(=O)(=O)N2CCCC2)c1 classified in this test?
Resp: NO

Req: How was COCCCNC(NC(=O)c1ccc(OC)cc1)C(Cl)(Cl)Cl (stereo unspecified) classified in this test?
Resp: NO

Req: How was Cc1cccc(-n2cnc(C(=O)Nc3cccnc3)c2)n1 classified in this test?
Resp: YES

Req: How was C/C(=N\NC(=O)CNC(=O)C(c1ccccc1)c1ccccc1)c1ccc(C)cc1 classified in this test?
Resp: NO

Req: How was Cc1ccc(Cn2c(CCCNC(=O)C3CCCCC3)nc3ccccc32)cc1 classified in this test?
Resp: NO

Req: How was CC(C)C(=O)Nc1ccc2oc(=O)ccc2c1 classified in this test?
Resp: NO

Req: How was COc1ccc(NC(=O)CN2C(=O)COc3ccc(S(=O)(=O)N4CCOCC4)cc32)cc1 classified in this test?
Resp: NO

Req: How was C/C(=N\NC(=O)c1cccc([N+](=O)[O-])c1)c1cccnc1 classified in this test?
Resp: NO

Req: How was CC(=O)Nc1nc(C)c(-c2csc(Nc3ccc(S(N)(=O)=O)cc3)n2)s1 classified in this test?
Resp: NO

Req: How was Cc1noc(C)c1COc1cccc(C(=O)Nc2cccnc2)c1 classified in this test?
Resp: NO

Req: How was O=c1c2ccccc2ncn1/N=C/c1ccccc1 classified in this test?
Resp: YES

Req: How was Nc1c(C(=O)OCC(=O)Nc2ccc(OC(F)F)cc2)[nH]c(=O)[nH]c1=O classified in this test?
Resp: NO

Req: How was CCCSc1nsc(N)n1 classified in this test?
Resp: NO

Req: How was Cc1cccc(-n2cnc(C(=O)NNC(=S)Nc3ccccc3)c2)n1 classified in this test?
Resp: NO

Req: How was NS(=O)(=O)c1ccc(NS(=O)(=O)/C=C/c2ccccc2)cc1 classified in this test?
Resp: NO

Req: How was NS(=O)(=O)c1ccc(Nc2nc(-c3ccccc3)cs2)cc1 classified in this test?
Resp: YES

Req: How was Cc1cc(C)c(NC(=O)CS(=O)CC(=O)Nc2cccnc2)c(C)c1 (stereo unspecified) classified in this test?
Resp: NO

Req: How was CCCc1nc2ccccc2c(=O)n1/N=C/c1ccc(O)c(O)c1 classified in this test?
Resp: NO

Req: How was CCCn1c(CCNc2nc(-c3ccc(OC)cc3)cs2)nc2ccccc21 classified in this test?
Resp: NO

Req: How was Cc1nn(-c2ccccc2)c(-n2cccc2)c1C(=O)O classified in this test?
Resp: NO

Req: How was O=C(COC(=O)c1ncc(Cl)c(Cl)c1Cl)NCc1ccccc1 classified in this test?
Resp: NO

FYI, the data here is from PubChem BioAssay AID588342.
